# Test system: SF-268
# TEST_PROTOCOL: NCI tumour cell line growth inhibition, 48 h
Activity calls are given as the source filed them. Rule as the data show it: active = GI50 up to about 1.1 µM and inactive = higher.
Outcome codes: active, inactive

{"COMPOUND": "O=C(/C=C/c1ccccc1F)C(c1ccccc1)c1ccccc1", "ANSWER_LABEL": "inactive"}
{"COMPOUND": "COC(=O)C(CCC(=O)CCl)N1C(=O)c2ccccc2C1=O (stereo unspecified)", "ANSWER_LABEL": "inactive"}
{"COMPOUND": "C=C1C(=O)OC2C1CCC(C)C1(O)C=CC(=O)C21C (stereo unspecified)", "ANSWER_LABEL": "inactive"}
{"COMPOUND": "CC(=O)O[C@@H](c1nccn1Cc1ccccc1)[C@H]1OC(C)(C)O[C@@H]1[C@H]1COC(C)(C)O1", "ANSWER_LABEL": "inactive"}
{"COMPOUND": "NC(CCOCCP(=O)(O)CCC1C=CC=CC1)C(=O)O (stereo unspecified)", "ANSWER_LABEL": "inactive"}
{"COMPOUND": "CCCCN(CCCC)CC(O)c1cc(-c2ccc(Cl)c(Cl)c2)nc2c(Cl)cc(Cl)cc12 (stereo unspecified)", "ANSWER_LABEL": "inactive"}
{"COMPOUND": "CCCCCCCCCCCCOP(=O)(O)OP(=O)(O)OCC1OC(n2ccc(N)nc2=O)CC1O (stereo unspecified)", "ANSWER_LABEL": "inactive"}
{"COMPOUND": "O=Cc1cc2c(s1)C(=O)c1sccc1C2=O", "ANSWER_LABEL": "active"}
{"COMPOUND": "COCCOC(C)C(=O)C(O)S(=O)(=O)O (stereo unspecified)", "ANSWER_LABEL": "inactive"}
{"COMPOUND": "CCOC(=O)/C(=C\\c1ccc(O)c(OC)c1)C(=O)c1ccccc1", "ANSWER_LABEL": "inactive"}
{"COMPOUND": "CC1(CCOCc2ccccc2)NC(=O)NC1=O (stereo unspecified)", "ANSWER_LABEL": "inactive"}
{"COMPOUND": "COc1cc(/N=N/N(C)C)c(C(C)c2c3cc(OC)c(OC)cc3cc[n+]2C)cc1OC (stereo unspecified)", "ANSWER_LABEL": "inactive"}
{"COMPOUND": "CCCCCCNC(=O)CCC(NC(=O)c1ccc(N(C)Cc2cnc3nc(N)nc(N)c3n2)cc1)C(=O)NCCCCCC (stereo unspecified)", "ANSWER_LABEL": "inactive"}
{"COMPOUND": "COc1ccc(Oc2nc3c(N)cc(C(F)(F)F)cc3nc2-c2ccccc2)cc1", "ANSWER_LABEL": "inactive"}
{"COMPOUND": "O=C1O/C(=C(/c2ccc(Cl)cc2)c2nc3ccccc3[nH]2)C(O)=C1c1ccc(Cl)cc1", "ANSWER_LABEL": "inactive"}
{"COMPOUND": "CC1(C)C(=O)/C=C\\C(=O)C(C)(C)C2=CC=C(O2)C(C)(C)C(=O)C(Br)C(Br)C(=O)C(C)(C)C2=CC=C1O2 (stereo unspecified)", "ANSWER_LABEL": "inactive"}
{"COMPOUND": "Cc1cc2nc3c(C)c4ccccc4c(C)n3c2cc1C", "ANSWER_LABEL": "inactive"}
{"COMPOUND": "O=c1nc2n3c4c(cccc4nc-2c(=O)[nH]1)CCC3", "ANSWER_LABEL": "inactive"}
{"COMPOUND": "Cc1ccc(C2=C(c3ccc(C)cc3)C(c3ccc(C)cc3)=C(c3ccc(C)cc3)C2=O)cc1", "ANSWER_LABEL": "inactive"}
{"COMPOUND": "CC1(C)CC(=O)C2=C(C1)NC1=C(C(=O)CC(C)(C)C1)C2c1ccc([N+](=O)[O-])cc1", "ANSWER_LABEL": "inactive"}
{"COMPOUND": "O=C1CSC(c2c[nH]c3ccccc23)N1c1cccc(Cl)c1 (stereo unspecified)", "ANSWER_LABEL": "inactive"}
